# System: HepG2
# protocol_text: cell viability relative to DMSO; higher = less toxic
# setup_conditions: 72 h; 1 nM
Reported cell viability values are given for each entry in this list.
endpoint_name: cell viability (%)

In [3]: df
Out[3]:
                                   compound   endpoint_name  unit_of_measurement  obs_value
0              CCOc1ccc(C(=O)OCCN(CC)CC)cc1  cell viability                    %       98.6
1  CCCn1c(=O)c2nc(C34CC5CC(CC3C5)C4)[nH]c2n(CCC)c1=O  cell viability                    %       94.2
2                          CN(C)CCCCSC(=N)N  cell viability                    %        104
3  CC(=O)CC/C=C(\C)CC/C=C(\C)CC/C=C(\C)CCC=C(C)C  cell viability                    %       96.3
4  Cc1ccc(CNc2ncnc3ccc(-c4ccc(CO)o4)cc23)o1  cell viability                    %       94.8
5  Cc1cc(Nc2nc(N[C@@H](C)c3ncc(F)cn3)ncc2Cl)[nH]n1  cell viability                    %       98.6
6          O=C(O)CNC(=O)c1nc(Cl)c2ccccc2c1O  cell viability                    %        101
7  CSc1nc2ccc3nc(NC(=O)C(c4ccccc4)c4ccccc4)sc3c2s1  cell viability                    %       96.4
8  Oc1cc(CNC(=S)/C=C/c2cc(O)c(O)c(Br)c2)cc(O)c1O  cell viability                    %        101
9  O=C(O)CC1CC(c2ccccc2)=NO1 (stereo not given)  cell viability                    %       98.1

====

# Tested on: U2OS
# protocol_text: cell viability relative to DMSO; higher = less toxic
# setup_conditions: 72 h; 10 nM

compound	cell viability [%]
C[C@]12CCC(=O)C=C1CC[C@@H]1[C@@H]2CC[C@@]2(C)[C@H]1CC[C@]2(C)O	96.1
O=C(NCCNCC(O)COc1ccc(O)cc1)N1CCOCC1 (configuration not stated)	91.3
Nc1nc(=O)c(Br)c(-c2ccccc2)[nH]1	95.1
CCC(=O)O[C@]1(C(=O)CCl)[C@@H](C)C[C@H]2[C@@H]3CCC4=CC(=O)C=C[C@]4(C)[C@@]3(F)[C@@H](O)C[C@@]21C [clobetasol-propionate]	95.7
COc1cc(OC)c(/C=C/S(=O)(=O)Cc2ccc(OC)c(OP(=O)(O)O)c2)c(OC)c1	104
O=C(Nc1cnn2ccc(N3CCC[C@@H]3c3cc(F)ccc3F)nc12)N1CC[C@H](O)C1	105
N=C(N)NCCN1CCCCCCC1	96.6
O=C(Oc1ccc(Br)cc1)N1CCN2CCC1CC2	102
CC(=O)N1N=C(c2ccc(N)cc2)c2cc3c(cc2C[C@H]1C)OCO3	101
OCCOc1ccc(/C(=C(/CCCl)c2ccccc2)c2ccccc2)cc1	104
C#C[C@]1(OC(C)=O)CC[C@H]2[C@@H]3CCC4=CC(=O)CC[C@@H]4[C@H]3CC[C@@]21C [norethindrone-acetate]	99.6
O=C(O[C@H]1[C@H](OC(=O)c2cccnc2)[C@@H](OC(=O)c2cccnc2)[C@H](OC(=O)c2cccnc2)[C@@H](OC(=O)c2cccnc2)[C@H]1OC(=O)c1cccnc1)c1cccnc1 [inositol-hexanicotinate]	90.5
CC(=O)CC/C=C(\C)CC/C=C(\C)CC/C=C(\C)CCC=C(C)C	95.4
C[C@]12CCC(=O)C=C1C=C[C@@H]1[C@@H]2CC[C@@]2(C)[C@H]1CC[C@@]2(O)CCC(=O)O [potassium-canrenoate]	104
COC(=O)Nc1nc2cc(C(=O)c3ccccc3)ccc2[nH]1	102
c1ccc2sc(SNC3CCCCC3)nc2c1 [N-cyclohexyl-2-benzothiazolesulfenamide]	95
N#C/C(=C1/SC[C@@H](c2ccc(Cl)cc2Cl)S1)n1ccnc1	100

====

# System: HepG2
# protocol_text: cell viability relative to DMSO; higher = less toxic
# setup_conditions: 72 h; 10000 nM
endpoint_name: cell viability (%)

                                    molecule  unit_of_measurement  obs_value
 0  CC1(C)S[C@@H]2[C@H](N3C(=O)[C@@H](c4ccccc4)NC3(C)C)C(=O)N2[C@H]1C(=O)O [hetacillin]                    %       93.8
 1  CCCCCCCCCCCCCCCC[n+]1ccccc1 [cetylpyridinium]                    %       14.6
 2  CC(C)OC(=O)N1CCC(Oc2ncnc3c2cnn3-c2ccc(S(C)(=O)=O)cc2F)CC1 [APD668]                    %       77.1
 3  O=C(NC1CCN(Cc2ccccc2)CC1)c1ccc(I)cc1 [4-IBP]                    %         68
 4  CC(=O)N1N=C(c2ccc(N)cc2)c2cc3c(cc2C[C@H]1C)OCO3 [talampanel]                    %       99.7
 5  COc1cc(-c2cc(-c3cccc(O)c3)cnc2N)cc(OC)c1OC                    %       74.8
 6  O=C1[O][SbH]23[O]C(=O)C([O]2)C2[O][SbH]4([O]C(=O)C([O]4)C1[O]3)[O]C2=O [antimonyl]                    %         48
 7  CC(C)CCC[C@@H](C)[C@H]1CC[C@H]2[C@@H]3CCC4=CC(=NO)CC[C@]4(C)[C@H]3CC[C@]12C [olesoxime]                    %       97.4
 8  O=S(=O)(c1cccc2c(O)nccc12)N1CCCNCC1 [hydroxyfasudil]                    %       98.3
 9  CCCS(=O)(=O)Nc1ccc(F)c(C(=O)c2c[nH]c3ncc(Cl)cc23)c1F [PLX4720]                    %       49.5
10  CO[C@H]1[C@H](O)[C@@H](O)[C@@H](O)[C@H](O)[C@@H]1O [pinitol]                    %       96.6
11  Cn1nc(C(C)(C)C)cc1C(=O)N[C@@H](Cc1cccc(Cl)c1)C(=O)NCC#N [cathepsin-inhibitor-1]                    %       98.4
12  COc1ccccc1N1CCN(CCN2C(=O)CC3(CCCC3)CC2=O)CC1 [BMY-7378]                    %        108
13  CC(Cc1ccc(O)cc1)NCC(O)c1cc(O)cc(O)c1 (stereo unspecified) [fenoterol]                    %       82.9
14  COc1cc(C(=S)N2CCOCC2)ccc1O [vanitiolide]                    %        109
15  C[C@]12CCC(=O)C=C1CC[C@@H]1[C@@H]2C(=O)C[C@]2(C)C(=O)CC[C@@H]12 [adrenosterone]                    %       97.5
16  COc1cc(N2CCN(C)CC2)ccc1Nc1nccc(-c2cn(C)c3cnccc23)n1 [AZ191]                    %       22.3
17  N[C@@H](CCC(=O)N[C@@H](CS)C(=O)NCC(=O)O)C(=O)O [glutathione]                    %        104
18  O=C(NOCC1CC1)c1ccc(F)c(F)c1Nc1ccc(I)cc1Cl                    %       19.4
19  CC(NC(C)(C)C)C(=O)c1cccc(Cl)c1 (stereo unspecified) [bupropion]                    %         95
20                          CN(C)CCCCSC(=N)N                    %       95.1

====

// cell viability lookup, one value per entry
# System: Calu-3
# protocol_text: cell viability relative to DMSO; higher = less toxic
# setup_conditions: 72 h; 1000 nM
endpoint_name: cell viability (%)

>>> df
                                   compound   endpoint_name  obs_value
0  C[C@]12CCC(=O)C=C1C=C[C@@H]1[C@@H]2CC[C@@]2(C)[C@H]1CC[C@@]2(O)CCC(=O)O [potassium-canrenoate]  cell viability        101
1  CC(C)C(=O)Oc1ccc(CO)cc1[C@H](CCN(C(C)C)C(C)C)c1ccccc1 [fesoterodine]  cell viability        100
2  CC1(C)O[C@@H]2[C@@H](CO[C@@]3(COS(N)(=O)=O)OC(C)(C)O[C@@H]23)O1 [topiramate]  cell viability       95.2
3  CCOC(=O)[C@H](CCc1ccccc1)N[C@@H](C)C(=O)N1[C@H](C(=O)O)C[C@H]2CCCC[C@@H]21 [trandolapril]  cell viability        108
4  O=C(NCCNCC(O)COc1ccc(O)cc1)N1CCOCC1 (configuration not stated) [xamoterol]  cell viability        100
5  COc1cc(COc2cc(N)c(Cl)cc2C(=O)CCC2CCN(CCNS(C)(=O)=O)CC2)cc(OC)c1  cell viability        105
6  CC1(C)O[C@@H]2C[C@H]3[C@@H]4CCC5=CC(=O)CC[C@]5(C)[C@@]4(F)[C@@H](O)C[C@]3(C)[C@]2(C(=O)CCl)O1 [halcinonide]  cell viability        100
